- Assay explanation: Henry solubility constant Hcp at 298.15 K (mol/(m3 Pa))
- Condition summary: reference: Lee et al. (2012)
Kindly supply the reported Henry solubility constant Hcp values for the records listed here.
Answers are plain numbers.

Reference set, count: 2
Compound: Clc1cc(Cl)c(Cl)cc1Cl [1,2,4,5-tetrachlorobenzene]
Henry solubility constant Hcp: 0.0066
//
Compound: Clc1cccc(Cl)c1Cl [1,2,3-trichlorobenzene]
Henry solubility constant Hcp: 0.008

Parameters: items (list). Returns: Henry solubility constant Hcp for each item.
1. c1ccc2c(c1)ccc1c3ccccc3ccc21 [chrysene]
2. Cc1c([N+](=O)[O-])c(C)c([N+](=O)[O-])c(C(C)(C)C)c1[N+](=O)[O-] [2,4,6-trinitro-1,3-dimethyl-5-tert-butylbenzene]
3. c1ccc2c(c1)-c1cccc3cccc-2c13 [benzo[jk]fluorene]
4. c1ccc2cc3c(cc2c1)-c1cccc2cccc-3c12 [benzo[k]fluoranthene]
5. c1ccc2c(c1)ccc1ccccc12 [phenanthrene]

OUT:
[2.1, 0.32, 0.34, 10, 0.18]
